# Conditions: 20.0 µM
Measure: relative solubility at 20 uM
Reply with the value as a number alone.

Value of relative solubility at 20 uM reported for the compound O=C(CCl)N1CCN(Cc2cccc3ccccc23)CC1 is 0.99

Input Cc1nnc(NC(=O)Nc2cccnc2)s1 . Output relative solubility at 20 uM: 1

Recorded result, Cc1cc(C)c(C)c(S(=O)(=O)N2CCN(C(=O)c3cc[nH]c(=O)c3)CC2)c1C , relative solubility at 20 uM: 0.99

So for Cc1ccc(S(=O)(=O)N2CCN(C(=O)c3cc(=O)[nH]c4cc(F)ccc34)CC2)c(C)c1 , the logged relative solubility at 20 uM turned out to be 1

The compound identified as C=CC(=O)N(c1ccc(C(C)(C)C)cc1)C(C(=O)NC(C)CC)c1cccnc1 (stereo not drawn) registered its relative solubility at 20 uM at 1

The value of relative solubility at 20 uM measured for the compound COc1cccc2c1OCC(NC(=O)c1cc(=O)[nH]c3cc(F)ccc13)C2 (stereo not drawn) turned out to be 0.9

According to the records, this compound O=C1CN(c2nnc(C3CCC(=O)N3)n2CCn2cc(Cl)cn2)CCN1 (stereo not drawn) displays relative solubility at 20 uM of 1

The measured relative solubility at 20 uM associated with Cc1nc(-c2cccc(CNC(=O)Nc3cccc(CN4CCCC4=O)c3)c2)n[nH]1 reads 0.98

For C=CC(=O)N(c1ccc(C(C)(C)C)cc1)C(C(=O)NCC)c1cccnc1 (stereo not drawn) the compound record lists relative solubility at 20 uM as 0.99

The reported relative solubility at 20 uM of the compound N#Cc1cccc(NC(=O)Nc2cncc(N)c2)c1 was 1

relative solubility at 20 uM measured on CC(=O)N1CCN(S(=O)(=O)c2ccsc2)CC1 = 0.99

Record summary for COc1ccc2nc(C)cc(C(=O)NN)c2c1 : reported relative solubility at 20 uM = 1

Notebook: CC(=O)NCCc1cn(CC(=O)N2CCOCC2)c2ccccc12 , relative solubility at 20 uM read as 0.97

Looking up Cc1cc(CC(=O)Nc2cnccc2C)[nH]n1 , I found its relative solubility at 20 uM recorded as 1

relative solubility at 20 uM for CCC(C)CC(=O)N1CCCC(NC(=O)Cn2c(C)cc(C)nc2=O)CC1 (stereo not drawn) is 0.98

Entry under test: C=CC(=O)N(c1ccc(C(C)OC)cc1)C(C(=O)Nc1ccc(Cl)cc1)c1cccnc1 (stereo not drawn) . Its relative solubility at 20 uM was 0.84

Sure, the documented relative solubility at 20 uM for O=C(c1cc(=O)[nH]c2ccc(Cl)cc12)N1CCN(S(=O)(=O)c2ccccc2F)CC1 is 0.94

According to the records, this compound CCN(CC1COc2ccccc2O1)C(=O)c1cc(=O)[nH]c2ccc(Cl)cc12 (stereo not drawn) displays relative solubility at 20 uM of 0.95

Lab note: measured relative solubility at 20 uM of CC(NC(=O)c1ccccc1OCC(N)=O)c1cnn(C)c1 (stereo not drawn) was 1

Entry Cc1ccncc1NS(=O)(=O)Cc1cccc(Cl)c1 — recorded relative solubility at 20 uM = 1

Query CCC(=O)NCC[C@@H]1CCc2ccc3c(c21)CCO3 (stereo in doubt) yields relative solubility at 20 uM of 1

Short answer for Cc1ccnc(C)c1NC(=O)C1CC2CC2C1 (stereo not drawn) : relative solubility at 20 uM was 1

Sure, the documented relative solubility at 20 uM for CCn1c(CSc2nc(C)c(C)n2CC2CCCO2)nc2cc(S(=O)(=O)N(C)C)ccc21 (stereo not drawn) is 0.85
